This section presents compounds with their documented MIC values.
tested on: Escherichia coli; assay: Antimicrobial activity against wild-type Escherichia coli Eco523 by broth microdilution/CLSI method; assay type: functional; conditions: Escherichia coli, Eco523; read-out: MIC

# MIC of `CO[C@H]1CN(c2nc(-c3cncnc3)c(C(=O)O)s2)CC[C@H]1NC(=O)c1[nH]c(C)c(Cl)c1Cl` = > 100 µg/mL

Summary for this compound, `CO[C@H]1CN(c2nc(C(=O)O)cs2)CC[C@H]1NC(=O)c1[nH]c(C)c(Cl)c1Cl` : MIC is > 8 µg/mL

Recorded result, `Cc1[nH]c(C(=O)N[C@@H]2CCN(c3ncc(C(=O)O)s3)CC23OCC(C)(C)CO3)c(Cl)c1Cl` , MIC: > 64 µg/mL

Please fill in: MIC reported for `CO[C@H]1CN(c2nc(C(=O)NCCN3CCOCC3)c(C(=O)O)s2)CC[C@H]1NC(=O)c1[nH]c(C)c(Cl)c1Cl` = > 8 µg/mL

Note to self: MIC recorded for `CO[C@H]1CN(c2nc(C(=O)O)c(C)s2)CC[C@H]1NC(=O)c1[nH]c(C)c(Cl)c1Cl` was > 8 µg/mL

Record Cc1[nH]c(C(=O)N[C@@H]2CCN(c3ncc(C(=O)O)s3)C[C@@H]2O)c(Cl)c1Cl (racemic) . Reported MIC: > 64 µg/mL

Recorded result, `CO[C@H]1CN(c2nc(C(F)F)c(C(=O)O)s2)CC[C@H]1NC(=O)c1[nH]c(C)c(Cl)c1Cl` , MIC: > 8 µg/mL

Lab note: Cc1[nH]c(C(=O)N[C@@H]2CCN(c3ncc(C(=O)O)s3)C[C@@H]2S(C)(=O)=O)c(Cl)c1Cl (racemic) gave MIC of > 8 µg/mL

Others:
// MIC value for Cc1[nH]c(C(=O)N[C@@H]2CCN(c3ncc(C(=O)O)s3)C[C@@H]2CO)c(Cl)c1Cl (racemic) : > 64 µg/mL

The recorded MIC for COCCO[C@H]1CN(c2ncc(C(=O)O)s2)CC[C@H]1NC(=O)c1[nH]c(C)c(Cl)c1Cl (racemic) is > 8 µg/mL

# MIC (compound: `Cc1[nH]c(C(=O)N[C@@H]2CCN(c3ncc(C(=O)O)s3)CC23OCCCO3)c(Cl)c1Cl` ) is > 64 µg/mL
